# Tested on: CAKI-1 renal
# experiment_description: NCI-60 one-dose screen, 48 h
# measurement_context: 10 µM unless noted
About 83,000 compounds went through this panel and 20% of them were active in at least one assay; those are over-represented in the sample as a whole. Activity calls are given as the source filed them. Rule for the calls: active = growth percent below 10; inactive = the rest.
Mark one answer only. Choices: active, inactive

[in] Assay result, entry COc1cc(-c2nn(-c3ccc(NC(=O)Nc4cc(C(F)(F)F)cc(C(F)(F)F)c4)cc3)cc2-c2ccncc2)ccc1Cl — outcome?
[out] active

[in] Assay result, entry COc1cccc(CNC(=O)c2cccc(C3CC(=O)c4c(cc(OC)c(OC)c4OC)O3)c2)c1 (stereo not given) — outcome?
[out] inactive

[in] Assay result, entry COc1cc(-c2nn(-c3ccc(NC(=O)Nc4ccc(Cl)c(Cl)c4)cc3)cc2-c2ccncc2)ccc1Cl — outcome?
[out] inactive

[in] Assay result, entry N#Cc1c2ncccc2c2nnc3cc(Cl)c(Cl)cc3n12 — outcome?
[out] inactive

[in] Assay result, entry CCCCN(CCC)CCCCCCCCCCN1CCCc2ccccc21 — outcome?
[out] inactive

---

# System: OVCAR-5 ovarian
# experiment_description: NCI-60 one-dose screen, 48 h
# measurement_context: 10 µM unless noted
# Protocol: Growth inhibition of the OVCAR-5 human tumor cell line is measured as a screen for anti-cancer activity. Cells are grown in 96 well plates and exposed to the test compound for 48 hours. Compounds are tested at a single concentration, which is 10^-5 M for most compounds. The reported endpoint is percent growth (GI% or GIPRCNT), where numbers from 0 - 100% represent growth inhibition, and numbers from -100% - 0 represent cell death. For example, a value of 40 represents 60% growth inhibition. […]
About 83,000 compounds went through this panel and 20% of them were active in at least one assay; those are over-represented in the sample as a whole. Calls of active or inactive are those of the source. The calls were made as follows: active = growth percent below 10; inactive = the rest.
Mark one answer only. Choices: label 1 (active), label 0 (inactive)

[in] Assay result, entry O=P(OCCCl)(OCCCl)C(O)c1ccccc1Cl (stereo not given) — outcome?
[out] label 0

[in] Assay result, entry CC(=O)Nc1ccc(S(=O)(=O)Cl)cc1 — outcome?
[out] label 0

[in] Assay result, entry COc1cccc(-c2cc(-c3cc4ccccc4oc3=O)nc(N)n2)c1 — outcome?
[out] label 0

[in] Assay result, entry COc1ccc2c(c1)cn1c3ccc(O)cc3[nH]c(=O)c21 — outcome?
[out] label 0

[in] Assay result, entry O=C(CN1C(=O)NC(c2ccccc2)(c2ccccc2)C1=O)c1ccc(N2CCCC2)cc1 — outcome?
[out] label 0

[in] Assay result, entry O=C1/C(=C/c2ccc(Cl)cc2)CCC/C1=C\c1ccc(Cl)cc1 — outcome?
[out] label 0

[in] Assay result, entry COC(=O)c1ccc2[nH]c(O)c(C(=Nc3ccc(N(C)C(=O)CN4CCN(C)CC4)cc3)c3ccc(CCO)cc3)c2c1 — outcome?
[out] label 0

[in] Assay result, entry COc1cc(-c2nn(-c3ccc(NC(=O)Nc4ccc(Cl)c(Cl)c4)cc3)cc2-c2ccncc2)ccc1Cl — outcome?
[out] label 0

[in] Assay result, entry C=CC1CN2CCC1CC2C(O)c1ccnc2ccc(OC)cc12 (stereo not given) — outcome?
[out] label 0

[in] Assay result, entry O=C(Nc1ccc(-n2cc(-c3ccncc3)c(-c3ccc(Cl)c(O)c3)n2)cc1)Nc1cc(C(F)(F)F)cc(C(F)(F)F)c1 — outcome?
[out] label 0

[in] Assay result, entry CCOC(=O)c1sc(NS(=O)(=O)c2ccccc2)nc1C — outcome?
[out] label 0

[in] Assay result, entry COc1ccc(C2C3(C#N)C(N)=NC(=C(C#N)C#N)C23C#N)cc1OC (stereo not given) — outcome?
[out] label 0

[in] Assay result, entry O=C(Nc1ccc(-n2cc(-c3ccncc3)c(-c3ccc(Cl)c(O)c3)n2)cc1)c1ccc(Cl)c(C(F)(F)F)c1 — outcome?
[out] label 0

[in] Assay result, entry CCCCCc1ccnc(CC(=O)c2ccc(OC)cc2)c1 — outcome?
[out] label 0

[in] Assay result, entry COc1cc(/C=C/C(=O)c2ccc(F)cc2)ccc1OCCCCOc1cc2c(cc1OC)C(=O)N1CCCC1C=N2 (stereo not given) — outcome?
[out] label 1
